Value source: ChEMBL document CHEMBL3526135

tested on: Slc21a10; test: Effect on Slc21a10 mRNA expression in Sprague-Dawley rat liver at 15 mg/kg, ip administered twice daily every 12 hrs for 8 days by microarray analysis relative to control; format: ADME, organism-based; parameters: dose 15 mg/kg, route intraperitoneal; details: read-out: FC
Quantity: fold induction at 8 days

compound="COc1ccc2c3c1O[C@H]1C(=O)CC[C@@]4(O)[C@@H](C2)N(C)CC[C@]314.Cl [OXYCODONE HYDROCHLORIDE]" target_desc=Slc21a10 quantity="fold induction at 8 days" assay_value=1.5

###

system: NR1I3; assay: Effect on NR1I3 mRNA expression in Sprague-Dawley rat liver at 15 mg/kg, ip administered twice daily every 12 hrs for 8 days by microarray analysis relative to control; type: ADME, organism-based; parameters: dose 15 mg/kg, route intraperitoneal; conditions: read-out: FC
Quantity: fold induction at 8 days

compound="COc1ccc2c3c1O[C@H]1C(=O)CC[C@@]4(O)[C@@H](C2)N(C)CC[C@]314.Cl [OXYCODONE HYDROCHLORIDE]" target_desc=NR1I3 quantity="fold induction at 8 days" assay_value=6.1

###

test system: FMO1; experiment: Effect on FMO1 mRNA expression in Sprague-Dawley rat liver at 15 mg/kg, ip administered twice daily every 12 hrs for 8 days by microarray analysis relative to control; type: ADME, organism-based; parameters: dose 15 mg/kg, route intraperitoneal; settings: read-out: FC
Quantity: fold induction at 8 days

compound="COc1ccc2c3c1O[C@H]1C(=O)CC[C@@]4(O)[C@@H](C2)N(C)CC[C@]314.Cl [OXYCODONE HYDROCHLORIDE]" quantity="fold induction at 8 days" assay_value=3.7

###

test system: Abcb4; assay: Effect on Abcb4 mRNA expression in Sprague-Dawley rat liver at 15 mg/kg, ip administered twice daily every 12 hrs for 8 days by microarray analysis relative to control; format: ADME, organism-based; parameters: dose 15 mg/kg, route intraperitoneal; conditions: read-out: FC
Quantity: fold induction at 8 days

molecule="COc1ccc2c3c1O[C@H]1C(=O)CC[C@@]4(O)[C@@H](C2)N(C)CC[C@]314.Cl [OXYCODONE HYDROCHLORIDE]" quantity="fold induction at 8 days" assay_value=1.5

###

test system: Slc25a15; assay: Effect on Slc25a15 mRNA expression in Sprague-Dawley rat liver at 15 mg/kg, ip administered twice daily every 12 hrs for 8 days by microarray analysis relative to control; type: ADME, organism-based; parameters: dose 15 mg/kg, route intraperitoneal; details: read-out: FC
Quantity: fold induction at 8 days

compound="COc1ccc2c3c1O[C@H]1C(=O)CC[C@@]4(O)[C@@H](C2)N(C)CC[C@]314.Cl [OXYCODONE HYDROCHLORIDE]" quantity="fold induction at 8 days" assay_value=2.1

###

system: CYP4a10; test: Effect on CYP4a10 mRNA expression in Sprague-Dawley rat liver at 15 mg/kg, ip administered twice daily every 12 hrs for 8 days by microarray analysis relative to control; format: ADME, organism-based; set-up: dose 15 mg/kg, route intraperitoneal; settings: read-out: FC
Quantity: fold induction at 8 days

compound="COc1ccc2c3c1O[C@H]1C(=O)CC[C@@]4(O)[C@@H](C2)N(C)CC[C@]314.Cl [OXYCODONE HYDROCHLORIDE]" target_desc=CYP4a10 assay_value=2
